Molecular target: Substance-P receptor (Homo sapiens, UniProt P25103)
Sequence (P25103 whole entry): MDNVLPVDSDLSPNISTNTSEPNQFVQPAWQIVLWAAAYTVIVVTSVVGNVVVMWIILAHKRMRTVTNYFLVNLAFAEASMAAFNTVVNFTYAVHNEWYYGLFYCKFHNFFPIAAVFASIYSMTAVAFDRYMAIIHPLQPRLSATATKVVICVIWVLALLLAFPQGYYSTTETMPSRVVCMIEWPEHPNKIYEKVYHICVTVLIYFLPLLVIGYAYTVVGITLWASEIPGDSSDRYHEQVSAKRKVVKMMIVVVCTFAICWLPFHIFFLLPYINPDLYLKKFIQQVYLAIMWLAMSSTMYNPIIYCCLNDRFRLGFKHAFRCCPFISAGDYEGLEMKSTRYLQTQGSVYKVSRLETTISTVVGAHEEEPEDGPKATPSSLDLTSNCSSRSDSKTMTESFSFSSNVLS
Assay: Antagonistic activity against Tachykinin receptor 1
Reported property: IC50 (µM)

// solved cases for IC50 follow
Compound	IC50 [µM]
O=C1N[C@@H](Cc2ccccc2)C(=O)N2[C@H]3Nc4ccccc4C3(C34C[C@H]5C(=O)N[C@@H](Cc6ccccc6)C(=O)N5[C@H]3Nc3ccccc34)C[C@@H]12 (stereo partly drawn)	0.24
O=C1N[C@@H](Cc2ccccc2)C(=O)N2[C@H]1C[C@@]1(Cc3cc([N+](=O)[O-])ccc3O)c3ccccc3N[C@@H]21	98
Cc1cccc2c1C1(C34C[C@H]5C(=O)N[C@@H](Cc6ccccc6)C(=O)N5[C@H]3Nc3ccccc34)C[C@H]3C(=O)N[C@@H](Cc4ccccc4)C(=O)N3[C@H]1N2 (stereo partly drawn)	0.44
O=C1N[C@@H](Cc2ccccc2)C(=O)N2[C@H]3Nc4ccccc4[C@@]3(Cc3cc([N+](=O)[O-])ccc3O)C[C@@H]12	48
COc1ccc([N+](=O)[O-])cc1C[C@]12C[C@H]3C(=O)N[C@@H](Cc4ccccc4)C(=O)N3[C@H]1Nc1ccccc12	54

I = COc1ccc(N)cc1C[C@]12C[C@H]3C(=O)N[C@@H](Cc4ccccc4)C(=O)N3[C@H]1Nc1ccccc12
II = COc1ccc([N+](=O)[O-])cc1C[C@@]12C[C@H]3C(=O)N[C@@H](Cc4ccccc4)C(=O)N3[C@@H]1Nc1ccccc12
III = COc1ccc(N)cc1C[C@@]12C[C@H]3C(=O)N[C@@H](Cc4ccccc4)C(=O)N3[C@@H]1Nc1ccccc12
IV = Cc1cccc2c1C1(C34C[C@H]5C(=O)N[C@@H](Cc6ccccc6)C(=O)N5[C@H]3Nc3cccc(C)c34)C[C@H]3C(=O)N[C@@H](Cc4ccccc4)C(=O)N3[C@H]1N2 (stereo partly drawn)
[ask] Given 4 compounds, produce a descending ranking by IC50. # the answer lists labels in the order requested
[reply] II, III, I, IV

* * *

Target: Substance-P receptor (Homo sapiens, UniProt P25103)
Experiment: Antagonistic activity against Tachykinin receptor 1
pIC50: −log10 of the molar value.
Reported property: pIC50

Some compounds with known pIC50 results, for comparison:
O=C1[C@@H]2C[C@@]3(Cc4cc([N+](=O)[O-])ccc4O)c4ccccc4N[C@H]3N2C(=O)[C@H](Cc2ccccc2)N1Cc1cc([N+](=O)[O-])ccc1O < 4.00
O=C1N[C@@H](Cc2ccccc2)C(=O)N2[C@H]1C[C@@]1(O)c3ccccc3N[C@@H]21 < 4.00
O=C1N[C@@H](Cc2ccccc2)C(=O)N2[C@H]3Nc4ccccc4[C@@]3(O)C[C@@H]12 < 4.00

Let us examine a further case.
So, `O=C1[C@@H]2C[C@]3(Cc4cc([N+](=O)[O-])ccc4O)c4ccccc4N[C@@H]3N2C(=O)[C@H](Cc2ccccc2)N1Cc1cc([N+](=O)[O-])ccc1O` ? Its pIC50 was < 4.00
